Item-by-item account of IC50
test: Inhibition of butter milk xanthine oxidase (unknown origin) assessed as reduction in uric acid formation using xanthine as substrate by spectrophotometric assay
Numbers only here, please. The scale is nM.

1. O=c1c(O)c(-c2ccc(O)c(O)c2)oc2cc(O)cc(O)c12 [QUERCETIN] | 383
2. Oc1ncnc2[nH]ncc12 [ALLOPURINOL] | 5300
3. CC(C)(C)c1ccc(-c2cc(=O)c3c(O)cc(O)cc3o2)cc1 | 90.8

As a next step, examine the compound that follows.
Query: For the compound COc1ccc(-c2cc(=O)c3c(O)cc(O)cc3o2)cc1 [ACACETIN] , what IC50 is on record?
Reply: 220
